assayNotes: Clearance in Sprague-Dawley rat at 5.0 mg/kg, iv
Assay type: ADME, organism-based
Design: dose 5 mg/kg, route intravenous
details: in vivo
assayReadout: clearance (mL/min/kg)
Use mL/min/kg as the unit, but write only the number.

>  <smilesText>
CC(C)(F)c1nc2ccccc2n1Cc1ccc(C(=O)N[C@@H]2C[C@@]3(CCCO3)C[C@@H]2C(=O)NO)cc1

>  <quantityUnit>
mL/min/kg

>  <clearance>
40

$$$$
>  <smilesText>
CC(C)(F)c1nc2ccccc2n1Cc1ccc(C(=O)N[C@@H]2CCOC[C@@H]2C(=O)NO)cc1

>  <quantityUnit>
mL/min/kg

>  <clearance>
31.7

$$$$
>  <smilesText>
CC(C)(C)c1nc2ccccc2n1Cc1ccc(C(=O)N[C@@H]2C[C@@]3(CCCO3)C[C@@H]2C(=O)NO)cc1

>  <quantityUnit>
mL/min/kg

>  <clearance>
48.3

$$$$
>  <smilesText>
C#CCN1C[C@H](C(=O)NO)[C@H](NC(=O)c2ccc(Cn3c(C(C)(C)C)nc4ccccc43)cc2)C1

>  <quantityUnit>
mL/min/kg

>  <clearance>
113

$$$$
>  <smilesText>
O=C(N[C@@H]1C[C@@]2(CCCO2)C[C@@H]1C(=O)NO)c1ccc(Cn2c(C3CC3)nc3ccccc32)cc1

>  <quantityUnit>
mL/min/kg

>  <clearance>
23.3

$$$$

Query string: Fill blank: measured clearance of the compound CC(F)(F)c1nc2ccccc2n1Cc1ccc(C(=O)N[C@@H]2CCOC[C@@H]2C(=O)NO)cc1 is ____.
Result string: 20

Query string: Please do the same for CC(C)c1nc2ccccc2n1Cc1ccc(C(=O)N[C@@H]2CCC[C@@H]2C(=O)NO)cc1 as well.
Result string: 50

Query string: Please do the same for O=C(N[C@@H]1CCC[C@@H]1C(=O)NO)c1ccc(Cn2c(C3CC3)nc3ccccc32)cc1 as well.
Result string: 25

---

assayNotes: Apparent permeability across human Caco-2 cells
Type: ADME, cell-based
assayReadout: Papp

>  <smilesText>
O=C(N[C@@H]1COC[C@@H]1C(=O)NO)c1ccc(Cn2c(C(F)(F)F)nc3ccccc32)cc1

>  <Papp>
0.1 ×10⁻⁶ cm/s

$$$$

Query string: Fill blank: measured Papp of the molecule CC(C)(F)c1nc2ccccc2n1Cc1ccc(C(=O)N[C@@H]2C[C@@]3(CCCO3)C[C@@H]2C(=O)NO)cc1 is ____.
Result string: 2.4 ×10⁻⁶ cm/s

---

System: Blood
assayNotes: Reduction of LPS-induced TNFalpha in human whole blood
Type: functional, tissue-based
assayReadout: IC50 (nM)
Use nM as the unit, but write only the number.

>  <smilesText>
CSc1nc2ccccc2n1Cc1ccc([C@]2(N)CCN([C@H](CC(C)C)C(=O)NO)C2=O)cc1

>  <targetEntity>
Blood

>  <quantityUnit>
nM

>  <dataValue>
316

$$$$
>  <smilesText>
CSc1nc2ccccc2n1Cc1ccc(C(=O)N[C@@H]2CN(C(=O)OC(C)(C)C)C[C@@H]2C(=O)NO)cc1

>  <targetEntity>
Blood

>  <quantityUnit>
nM

>  <dataValue>
62

$$$$

Lab note: next compound to report on.
Query string: Request - read-out IC50 | tested on Blood | compound CC(C)(C)c1nc2ccccc2n1Cc1ccc(C(=O)N[C@@H]2C[C@@]3(CCCO3)C[C@@H]2C(=O)NO)cc1
Result string: 252

---

Catalogue of Papp readings, one per entry.
assayNotes: Apparent permeability across human Caco-2 cells
Assay type: ADME, cell-based

Recorded results for 3 molecules are shown here.
>  <smilesText>
C#CCN1C[C@H](C(=O)NO)[C@H](NC(=O)c2ccc(Cn3c(C(C)(C)C)nc4ccccc43)cc2)C1

>  <dataValue>
0.4 ×10⁻⁶ cm/s

$$$$
>  <smilesText>
CC(C)(F)c1nc2ccccc2n1Cc1ccc(C(=O)N[C@@H]2CCOC[C@@H]2C(=O)NO)cc1

>  <dataValue>
0.3 ×10⁻⁶ cm/s

$$$$
>  <smilesText>
CC(C)(C)c1nc2ccccc2n1Cc1ccc(C(=O)N[C@@H]2C[C@@]3(CCCO3)C[C@@H]2C(=O)NO)cc1

>  <dataValue>
1.4 ×10⁻⁶ cm/s

$$$$

Query string: Fill blank: measured Papp of the molecule O=C(N[C@@H]1CCOC[C@@H]1C(=O)NO)c1ccc(Cn2c(C(F)(F)F)nc3ccccc32)cc1 is ____.
Result string: 0.7 ×10⁻⁶ cm/s

Query string: Please do the same for CC(C)c1nc2ccccc2n1Cc1ccc(C(=O)N[C@@H]2C[C@@]3(CCCO3)C[C@@H]2C(=O)NO)cc1 as well.
Result string: 0.1 ×10⁻⁶ cm/s

Query string: Please do the same for CSc1nc2ccccc2n1Cc1ccc(C(=O)N[C@@H]2CNC[C@@H]2C(=O)NO)cc1 as well.
Result string: 0.2 ×10⁻⁶ cm/s

Query string: Please do the same for CSc1nc2ccccc2n1Cc1ccc(C(=O)N[C@@H]2CN(C(=O)OC(C)(C)C)C[C@@H]2C(=O)NO)cc1 as well.
Result string: 0.2 ×10⁻⁶ cm/s

Query string: Please do the same for Cc1nc2ccccc2n1Cc1ccc(C(=O)N[C@@H]2CN(C(=O)OC(C)(C)C)C[C@@H]2C(=O)NO)cc1 as well.
Result string: 0.1 ×10⁻⁶ cm/s

Query string: Please do the same for O=C(N[C@@H]1C[C@@]2(CCCO2)C[C@@H]1C(=O)NO)c1ccc(Cn2c(C3CC3)nc3ccccc32)cc1 as well.
Result string: 0.1 ×10⁻⁶ cm/s

Query string: Please do the same for CC(C)c1nc2ccccc2n1Cc1ccc(C(=O)N[C@@H]2CNC[C@@H]2C(=O)NO)cc1 as well.
Result string: 0.1 ×10⁻⁶ cm/s

Query string: Please do the same for C#CCN1C[C@H](C(=O)NO)[C@H](NC(=O)c2ccc(Cn3c(C(C)C)nc4ccccc43)cc2)C1 as well.
Result string: 0.1 ×10⁻⁶ cm/s

Query string: Please do the same for CC(C)c1nc2ccccc2n1Cc1ccc(C(=O)N[C@@H]2CCOC[C@@H]2C(=O)NO)cc1 as well.
Result string: 0.5 ×10⁻⁶ cm/s
